Entry source: ChEMBL document CHEMBL1949553

Test system: RAW264.7
ASSAY PROCEDURE: Antiinflammatory activity in mouse RAW264.7 cells assessed as inhibition of LPS-induced NO production after 24 hrs by Griess method
Assay type: functional, cell-based
EXPERIMENTAL PARAMETERS: RAW264.7, 24 h
Criterion: IC50 strictly less than 60 µM. Met: met. Not met: not met.

- MOLECULE: "C[C@]1(CO)[C@H]2CC[C@@]3(CO3)[C@@H](CCC3=CCOC3=O)[C@]2(C)CC[C@H]1O"
  CLASS LABEL: "not met"
- MOLECULE: "C=C1CC[C@@H]2[C@](C)(CO)[C@H](O)CC[C@@]2(C)[C@@H]1CCC1=CCOC1=O [DEOXYANDROGRAPHOLIDE]"
  CLASS LABEL: "met"
- MOLECULE: "C[C@@]1(CO)[C@H](O)CC[C@@]2(C)C(CCC3=CCOC3=O)=C(C=O)CC[C@H]12"
  CLASS LABEL: "not met"
- MOLECULE: "C=C1CC[C@@H]2[C@](C)(CO)C(=O)CC[C@@]2(C)[C@]1(O)CCC1=CCOC1=O"
  CLASS LABEL: "met"
- MOLECULE: "C=C1CC[C@@H]2[C@](C)(CO)[C@H](O)C[C@@H](O)[C@@]2(C)[C@@H]1CCC1=CCOC1=O"
  CLASS LABEL: "not met"
- MOLECULE: "C=C1CC[C@H]2[C@@](C)([C@H](O)CC(=O)[C@@]2(C)CO)[C@@H]1CCC1=CCOC1=O"
  CLASS LABEL: "not met"
- MOLECULE: "C[C@@]12CCC(=O)[C@@](C)(CO)[C@H]1CC[C@@]1(CO1)[C@H]2CCC1=CCOC1=O"
  CLASS LABEL: "not met"

====

Tested on: RAW264.7
ASSAY PROCEDURE: Antiinflammatory activity in mouse RAW264.7 cells assessed as inhibition of LPS-induced NO production after 24 hrs by Griess method
Assay type: functional, cell-based
EXPERIMENTAL PARAMETERS: RAW264.7, 24 h
RECORDED ENDPOINT: IC50

- COMPOUND: "C=C1CC[C@H]2[C@@](C)(C=CC(=O)[C@@]2(C)CO)[C@@H]1CCC1=CCOC1=O"
  ENDPOINT RESULT: "10 µM"
- COMPOUND: "C=C1CC[C@@H]2[C@](C)(COC3O[C@H](CO)[C@@H](O)[C@H](O)[C@H]3O)CCC[C@@]2(C)[C@@H]1CCC1=CCOC1=O (stereo partly drawn)"
  ENDPOINT RESULT: "> 100 µM"
- COMPOUND: "C=C1[C@@H](CCC2=CCOC2=O)[C@]2(C)CC[C@@H](O)[C@@](C)(CO)[C@H]2C[C@@H]1O"
  ENDPOINT RESULT: "> 100 µM"
- COMPOUND: "C=C1CC[C@@H]2[C@](C)(CO)[C@H](O)CC[C@@]2(C)[C@]1(O)/C=C/C1=CCOC1=O"
  ENDPOINT RESULT: "97.2 µM"
- COMPOUND: "CO[C@]1(CO)CC[C@@H]2[C@](C)(CO)[C@H](O)CC[C@@]2(C)[C@@H]1CCC1=CCOC1=O"
  ENDPOINT RESULT: "> 100 µM"
- COMPOUND: "C=C1CC[C@H]2[C@@](C)(CCC(=O)[C@@]2(C)CO)[C@@H]1CCC1=CCOC1=O"
  ENDPOINT RESULT: "10.1 µM"
- COMPOUND: "C=C1CC[C@@H]2[C@](C)(CO)[C@H](O)CC[C@@]2(C)[C@@H]1C/C=C(/C(=O)O)[C@@H](O)CO"
  ENDPOINT RESULT: "> 100 µM"
- COMPOUND: "C[C@@]1(CO)[C@H](O)CC[C@@]2(C)C(CCC3=CCOC3=O)=C(CO)CC[C@H]12"
  ENDPOINT RESULT: "> 100 µM"
